Biological target: FAAH (Rattus norvegicus, UniProt P97612)
Construct: Preparation of Rat Brain Membranes Preparations (FAAH Enzyme Solution); from tissue; host or cells: rat cerebrum (brain membrane preparation)
Sequence (P97612 whole entry): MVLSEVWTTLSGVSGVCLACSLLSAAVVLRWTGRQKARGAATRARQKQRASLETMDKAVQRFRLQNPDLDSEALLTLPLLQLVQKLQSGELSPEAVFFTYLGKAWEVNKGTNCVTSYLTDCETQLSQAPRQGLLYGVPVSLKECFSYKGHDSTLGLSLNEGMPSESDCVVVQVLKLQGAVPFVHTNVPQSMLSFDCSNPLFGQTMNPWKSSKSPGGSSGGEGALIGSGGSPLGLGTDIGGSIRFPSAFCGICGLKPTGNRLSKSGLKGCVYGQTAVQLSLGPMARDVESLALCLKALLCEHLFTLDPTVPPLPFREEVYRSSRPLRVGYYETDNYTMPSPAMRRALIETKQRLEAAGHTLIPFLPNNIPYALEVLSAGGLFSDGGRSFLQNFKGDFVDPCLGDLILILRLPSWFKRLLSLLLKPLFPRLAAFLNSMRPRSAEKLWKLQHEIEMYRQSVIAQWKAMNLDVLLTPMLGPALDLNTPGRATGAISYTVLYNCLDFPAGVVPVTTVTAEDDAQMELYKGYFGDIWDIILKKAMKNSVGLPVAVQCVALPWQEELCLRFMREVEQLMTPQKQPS
Test: Determination of FAAH inhibitory activity in rat (rat brain membrane preparations, [3H]-anandamide hydrolysis)
Format: biochemical
Conditions: rat brain membrane preparations; test substance 0.1 nM to 1 μM; read-out: FAAH Inhibition IC50
Protocol: Determination of FAAH Inhibitory Activity in Rat The preparation of rat brain membranes preparations and the determination of FAAH inhibitory activity were carried out according to the Jonsson et al. method [Br. J. Pharmacol., 133, 1263 (2001)]. (1) Preparation of Rat Brain Membranes Preparations (FAAH Enzyme Solution) The cerebrum was extracted from rats and was freeze-stored at −80° C. […]
measured metric: IC50 (nM)

# count of solved cases: 5
molecule	IC50 (nM)
COc1cccc(-c2ncc3c(n2)n(C)c(=O)n3C(=O)N(C)CCOCC2CC2)c1 [Example 116]	2
CN(C)C(=O)n1c(=O)n(C)c2cnc(CCCOc3ccc(C(F)(F)F)cc3)nc21 [Example 394]	7
CN(C)C(=O)n1c(=O)n(C)c2cnc(CCc3ccccc3OC(F)(F)F)nc21 [compound 549]	22
COc1cccc(-c2ncc3c(n2)n(C)c(=O)n3C(=O)N2CCN(c3ccc(C)cc3)CC2)c1 [Example 138]	6
Cn1c(=O)n(C(=O)N2CCC2)c2nc(COc3ccc(C(F)(F)F)cc3)ncc21 [Example 434]	8

(a) CC(C)Cn1c(=O)n(C(=O)N2CCCC2)c2cnc(-c3ccccc3)nc21 [Example 307]
(b) Cn1c(=O)n(C(=O)N2CCC2)c2nc(CCc3cc(F)cc(F)c3)ncc21 [Example 580]
(c) CCOc1ccc(-c2ncc3c(n2)n(C)c(=O)n3C(=O)N2CCCC2)cn1 [compound 210]
Query string: Your job: order these 3 records by IC50, ascending. Reply format: the labels, ordered as requested.
Result string: c, b, a

(A) Cc1cccc(Cc2ncc3c(n2)n(C)c(=O)n3C(=O)N2CCCC2)c1 [Example 258]
(B) CCCCc1ncc2c(n1)n(C)c(=O)n2C(=O)N1CCCC1 [Example 274]
(C) Cn1c(=O)n(C(=O)N2CCC2)c2cnc(COc3cccc(OC(F)(F)F)c3)nc21 [compound 412]
(D) COc1ccc(-c2ncc3c(n2)n(C)c(=O)n3C(=O)N2CCCC2)cn1 [Example 206]
Query string: Thanks in advance: please rank these 4 entries by IC50, highest to lowest. Answer by naming the labels in the order asked.
Result string: C, A, B, D

(1) Cn1c(=O)n(C(=O)N2CCC2)c2cnc(Cc3cccc(F)c3)nc21 [compound 372]
(2) Cn1c(=O)n(C(=O)N2CCC2)c2nc(-c3ccc(OCC(F)F)cc3)ncc21 [compound 368]
(3) Cn1c(=O)n(C(=O)N2CCCC2)c2nc(CCc3cccc(C(F)(F)F)c3)ncc21 [Example 313]
(4) Cc1cccc(Cc2ncc3c(n2)n(C)c(=O)n3C(=O)N2CCC2)c1 [compound 371]
Query string: Which order do these items take when sorted by rising IC50? List them. Response format: the labels, sorted as the prompt asks.
Result string: 3, 2, 1, 4
(3: 11 nM, 2: 17 nM, 1: 32 nM, 4: 149 nM)
